Here, each record is paired with measured percent change in 14C-acetate incorporation into sterols at 0.01 µM data.
System: human hepatoma cells (HEP-G2)
Assay details: Inhibition of 14C-acetate incorporation in digitonin-precipitatable steroids in HEP-G2 cells
Format: cell-based
Reported conditions: Homo sapiens, HepG2, 10^-8 mol/l
Express your answer in %, writing the number without its unit.

Some compounds with known percent change in 14C-acetate incorporation into sterols at 0.01 µM results, for comparison:
O=C(c1ccc(Cl)cc1)N1CCC(=Cc2ccc(C3=NCC(c4ccccc4)O3)cc2)CC1 (stereo not shown) [S] | 0
O=C(c1ccc(Br)cc1)N1CCC(=Cc2ccc(C3=NCCO3)cc2)CC1 [AD] | -44
O=C(c1ccc(Cl)cc1)N1CCC(=Cc2ccc(C3=NCCO3)cc2)C1 [K] | -56
C[C@@H]1COC(c2ccc(C=C3CCN(C(=O)c4ccc(Cl)cc4)CC3)cc2)=N1 [R] | -57
O=C(c1cccc2ccccc12)N1CCC(=Cc2ccc(C3=NCCO3)cc2)CC1 [AG] | -30
O=C(c1ccc(Cl)cc1)N1CCC(Cc2ccc(C3=NCCO3)cc2)CC1 [I] | -75
O=C(c1ccc(Cl)cc1)N1CCC(=Cc2ccc(C3=NCCO3)cc2)CC1 [A] | -58
O=C(c1ccccc1)N1CCC(=Cc2ccc(C3=NCCO3)cc2)CC1 [AA] | -25

The reported percent change in 14C-acetate incorporation into sterols at 0.01 µM value, human hepatoma cells (HEP-G2), for C[C@H]1CN=C(c2ccc(C=C3CCN(C(=O)c4ccc(Cl)cc4)CC3)cc2)O1 [Q] reads -44

The reported percent change in 14C-acetate incorporation into sterols at 0.01 µM value, human hepatoma cells (HEP-G2), for O=C(c1ccc(Cl)cc1)N1CCC(=Cc2ccc(C3=NC(CO)CO3)cc2)CC1 (stereo not shown) [U] reads -21

The reported percent change in 14C-acetate incorporation into sterols at 0.01 µM value, human hepatoma cells (HEP-G2), for O=C(Cc1ccc(Cl)cc1)N1CCC(=Cc2ccc(C3=NCCO3)cc2)CC1 [AF] reads -22
